- Test system: intracellular proteome of ENR+CD and ENR organoids
- test_protocol: LC-MS/MS TMT proteomics of ENR+CD versus ENR organoids
- Assay type: cell-based, C57BL/6 mice
- condition: protein abundance ratio ENR+CD versus ENR organoids, sample pair M1-2; LC-MS/MS TMT proteomics
Overview of recorded M1-2 Log2 Median Normalized for various molecules

| molecule | M1-2 Log2 Median Normalized |
| --- | --- |
| Q9D9Z1 (protein, UniProt Q9D9Z1 1-312, looked up, full-length) MAAPEAEAQETAFRTTGPPTDSEPRPFPPSSRKFPFESAAADSNEDWAVAAEHYLKGSGENGGWEQPAPGVQPSHPATMASAKTVCDAQPHSMPSCGLPADTQTRATSKLPVKSKEADLLRHLHPGGPEPDVTKVTKSRRENGQVKAAETASRRNLRNSYKPFNKQKPEEELKDKNELLEAVNKQLHQKLTETQGELKDLTQKVELLEKFQDNCLALLESKGLNPGQETLASKQEPTTDHTDSMLLLETLKDELKVFNETAKKQMEELQALKVKLKLKEEESVQFLEQQTLCKDEASDFTIILEEMEQLLEM | −0.579 |
| Q8CAB8 (protein, UniProt Q8CAB8 1-329, looked up, full-length) MELHILEHRLQVASVAKESIPLFTYGLIKLAFLSSKTRCKFFSLTETPEDYTIIVDEEGFLELPSSEHLSVADATWLALNVVSGGGSFSSSQPIGVTKIAKSVIAPLADQNISVFMLSTYQTDFILVRERDLPFVTHTLSSEFTILRVVNGETVAAENLSFTNGFVKPKMVQRPVIHPLSSPSNRFCVTSLDPDTLPAVATLLMDVMFYSNGVKDPMAASDDCGHIRFFSFSLIEGYISLVMDVQTQQRFPSHLLFTSASGELWKMVRIGGQPLGFDECGIVAQISEPLAAADIPAYYISTFKFDHALVPEENISGVIHALKVSQAGKH | 0.678 |
